Measured median ratio of mNeonGreen to mCherry, flow cytometry, 1 µM A-1331852, listed per entry for reference.
systemName: Bcl-xL (human, fused to the C-terminus of ADAR2-DD) (human, UniProt Q07817 4-198)
Sequence (Q07817 4-198 limits assumed): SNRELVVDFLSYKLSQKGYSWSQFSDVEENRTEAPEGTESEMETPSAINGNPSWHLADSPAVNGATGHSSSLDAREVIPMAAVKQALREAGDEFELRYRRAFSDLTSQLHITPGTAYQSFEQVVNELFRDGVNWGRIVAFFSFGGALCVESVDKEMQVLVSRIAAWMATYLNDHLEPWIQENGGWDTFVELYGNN
assayExplanation: cell-based or functional assay
Ends that are not written are not given here.
valueType: median ratio of mNeonGreen to mCherry, flow cytometry, 1 µM A-1331852

>>> val("ASGSGTGAPPNLWAAQRYGRELRRMSDEGV (not fully specified)")
0.968
>>> val("ASGSGTGAPPNLWAAQRYGRELRRMSDEFV (not fully specified (N-terminus, C-terminus); also: part of an expressed fusion protein) [Bad(F) peptide (BH3 peptide Bad with its linker, as inserted at the 5' RNA binding loop of ADAR2-DD)]")
0.962
>>> val("ASGSGTGAPPNLWAAQRYGRELRRMSDEVV (not fully specified) [BAD(V) peptide (Bad point mutant F121V, inserted at the 5' RNA binding loop of ADAR2-DD)]")
1.02
>>> val("ASGSGTGAPPNLWAAQRYGRELRRMSDELV (not fully specified (N-terminus, C-terminus); also: part of an expressed fusion protein) [Bad(L) peptide (Bad point mutant F121L, inserted at the 5' RNA binding loop of ADAR2-DD)]")
0.903
